Where do the numbers come from? From PubChem BioAssay.

Catalogue of compounds with associated composite z-score
test: small molecules captured by biotinylated probe aFST – biochemical, small-molecule microarray, fluorescence 635/667, stem cell growth factor project, primary screen (AID 1086); details: higher = more signal;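 further: score merges 667 nm fluorescence with signal-to-noise of each printed compound spot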

Examples with their reported composite z-score follow.
{"compound": "C=C(CCCC)/C(=C/C[C@H](OC(=O)c1ccncc1)c1ccc(OCCO)cc1)c1cnc2ccccc2c1", "composite z-score": 0.402}
{"compound": "O=C1C2C=CC(C(O)C3CCCCC3)N(n3cnnc3)C2C(=O)N1Cc1ccccc1 (stereo unspecified)", "composite z-score": 1.47}
{"compound": "O=C(NCc1ccccc1)[C@@H]1c2ccccc2C(=O)N(Cc2cc(C(F)(F)F)cc(C(F)(F)F)c2)[C@H]1c1ccc(CO)cc1", "composite z-score": 0.423}
{"compound": "O=C1C[C@@](C(=O)NC2CC2)(c2ccc([N+](=O)[O-])cc2)[C@@H](c2ccc(CO)cc2)N1C1CCCCC1", "composite z-score": 0.832}
{"compound": "CCCN1C(=O)[C@]2(CCC(=O)OC(C)(C)C)N=C(c3ccc(OCCCO)cc3)O[C@@H]2c2ccccc21", "composite z-score": 0.0678}

Input: Indicate the recorded composite z-score value for this compound: O=C1N(CCS(=O)(=O)c2ccccc2)c2ccccc2C[C@]12N=C(c1ccc(OCCCO)cc1)O[C@@H]2c1ccccc1
Output: 0.734
